Provide the reported TGI of each item.
Test system: RXF 393 renal
Experiment: NCI tumour cell line growth inhibition, 48 h
Return type: number; implicit unit µM.

Query: What measured TGI goes with "C=C1CC[C@@H]2C(C)(C)[C@@H](O)CC[C@@]2(C)[C@@H]1COc1ccc2ccc(=O)oc2c1" ?
Reply: 21.9

Query: What do we get for "COc1cc(CNC(=O)/C=C/C=C/c2ccc3c(c2)OCO3)ccc1OCc1cn(-c2ccc(Cl)c(Cl)c2)nn1" ?
Reply: 3.75

Query: What do we get for "Nc1nc(N)c2cc(CNc3ccc(Cl)c(Cl)c3)ccc2n1" ?
Reply: 2.18

Query: What do we get for N#CC12COC3(CCCCC3C1(C#N)C#N)OC2=N (stereo not drawn) ?
Reply: 25.8

Query: What do we get for "O=C(N[C@H](c1ccc(Cl)c(Cl)c1)C1CNC1)c1ccc2cnccc2c1" ?
Reply: 3.74

====

Provide the reported TGI of each item.
System: HCC-2998 colon
Assay: NCI tumour cell line growth inhibition, 48 h

Query: What measured TGI goes with "COc1ccc2c(c1)/C(=C(\C(Cl)=C(Cl)Cl)[N+](=O)[O-])N2" ?
Reply: > 100 µM

Query: What do we get for Clc1cc2nc(C3CCCO3)[nH]c2cc1Cl (centres undefined) ?
Reply: > 100 µM

Query: What do we get for "COCCc1c(C)c(C#N)c2n(C)c3ccccc3n2c1=O" ?
Reply: > 10 µM

Query: What do we get for "COc1ccc2c(c1)/C(=C(\C(Cl)=C(\Cl)N1CCCCC1)[N+](=O)[O-])N2" ?
Reply: > 100 µM

====

Provide the reported TGI of each item.
System: MDA-MB-435
Assay: NCI tumour cell line growth inhibition, 48 h

Query: Provide value of TGI for this record tested with MDA-MB-435: "C=C1c2nc3ccccc3n2C=C(c2ccc(Cl)cc2)N1c1ccc(OCCN2CCOCC2)cc1"
Reply: > 100 µM

Query: What do we get for "Cc1ccc(-n2c3c(c4c(CN5CCCCC5)c(O)ccc42)CCc2ccccc2C3=O)cc1" ?
Reply: > 100 µM

Query: What do we get for "COc1ccc2nc(-c3ccc(OC(=O)N(C)C)cc3)cn2c1" ?
Reply: > 100 µM

Query: What do we get for O=C1NC(=NCc2cccs2)SC1Cc1ccc2ncccc2c1 (centres undefined) ?
Reply: > 25 µM

Query: What do we get for "COc1cc(N=C(N)N=C(N)N)c2ncccc2c1" ?
Reply: > 100 µM

Query: What do we get for "COc1cccc(Nc2nc(NNC(=O)Cc3ccccc3)nc(NNC(=O)c3ccncc3)n2)c1" ?
Reply: > 100 µM

Query: What do we get for "CCCNc1nc(N(C)O)nc(N(C)O)n1" ?
Reply: > 100 µM

Query: What do we get for "CCCCCCCCCc1cc(O)c(O)cc1CCCCCCCCC" ?
Reply: > 10 µM

Query: What do we get for O=C(O)CC(NC(=O)C(F)(F)F)C(=O)NC1Cc2ccccc2OC1=O (centres undefined) ?
Reply: > 100 µM

====

Provide the reported TGI of each item.
System: HOP-92 NSCLC
Assay: NCI tumour cell line growth inhibition, 48 h

Query: What measured TGI goes with C[N+](C)(C)CCOP(=O)(O)OP(=O)([O-])OCC1CCC(n2ccc(N)nc2=O)O1 (stereo not drawn) ?
Reply: > 100 µM

Query: What do we get for "NS(=O)(=O)c1ccc(NNC(=O)c2cccc3c(=O)c4ccccc4[nH]c23)cc1" ?
Reply: > 100 µM

Query: What do we get for "CC1=NN(c2nc(N)nc(CS(C)(=O)=O)n2)C(C)(C)C1" ?
Reply: > 100 µM

Query: What do we get for N#CC12COC3(CCCCC3C1(C#N)C#N)OC2=N (stereo not drawn) ?
Reply: 18.5 µM

Query: What do we get for COC1/C=C\C=C(/C)C(=O)NC2=CC(=O)C=C(C2=O)C(OC)C(C)CC(OC)C(OC)C(C)/C=C(/C)C1OC(N)=O (stereo not drawn) ?
Reply: 4.52 µM

Query: What do we get for O=C(CC(=O)N1N=C(n2ccc3ccccc32)CC1c1ccccc1)Nc1cccc(Cl)c1 (stereo not drawn) ?
Reply: > 100 µM

Query: What do we get for "C/C(CN1C(=O)c2ccccc2C1=O)=N\NS(=O)(=O)c1ccccc1" ?
Reply: > 100 µM

Query: What do we get for "O=C(N/N=C(/COc1cccc(Cl)c1)N=Cc1ccncc1)c1ccncc1" ?
Reply: > 100 µM

Query: What do we get for "OC(c1ccccc1)(c1ccccc1)c1ccccn1" ?
Reply: > 100 µM

Query: What do we get for "CS(C)(=O)=N/C=C\C(=O)C(Cl)(Cl)Cl" ?
Reply: > 100 µM

Query: What do we get for "CC(C)(C)OC(=O)N1C(C2=COc3ccccc3O2)=COc2ccccc21" ?
Reply: 73.2 µM

Query: What do we get for OC1CN(OC/C=C/c2ccccc2)CC(O)C1O (stereo not drawn) ?
Reply: > 100 µM

Query: What do we get for "Oc1c(C(O)(c2ccccc2)c2ccc3ccccc3c2O)ccc2ccccc12" ?
Reply: 24.1 µM

Query: What do we get for "O=C(Oc1cccnc1)c1ccccc1Nc1ccnc(C(F)(F)F)c1" ?
Reply: > 100 µM

Query: What do we get for C=CCN1CCC(OC(=O)C(O)(/C=C\CC)C2CCCC2)CC1 (stereo not drawn) ?
Reply: > 100 µM

Query: What do we get for "CCCc1cc(=O)oc2c(C(=O)CC(C)C)c(O)c(CC=C(C)C)c(O)c12" ?
Reply: 4.15 µM

Query: What do we get for COc1cc(/C=C2\C(=O)N(c3cccc(Cl)c3)C(c3ccccc3)S2(=O)=O)cc(OC)c1OC (stereo not drawn) ?
Reply: > 100 µM

Query: What do we get for CCN(CC)CC(O)c1ccc2ccc3ccccc3c2c1 (stereo not drawn) ?
Reply: 31.3 µM

====

System: BT-549 breast
Assay: NCI tumour cell line growth inhibition, 48 h
endpoint: TGI

Query: What measured TGI goes with "C=C1c2nc3ccccc3n2C=C(c2ccc(Cl)cc2)N1c1ccc(OCCN2CCOCC2)cc1" ?
Reply: > 100 µM

Query: What do we get for O=C1NC(=NCc2cccs2)SC1Cc1ccc2ncccc2c1 (stereo unspecified) ?
Reply: > 25 µM

Query: What do we get for CN(Cc1cnc2nc(N)nc(N)c2n1)c1ccc(C(=O)NC(CCS(=O)(=O)O)C(=O)O)cc1 (stereo unspecified) ?
Reply: > 100 µM

Query: What do we get for "COc1ccc2c(c1)/C(=C(\C(Cl)=C(Cl)Cl)[N+](=O)[O-])N2" ?
Reply: > 100 µM

Query: What do we get for "c1ccc(Cc2cccc3cc(-c4ccc(-c5ccccc5)cc4)[nH]c23)cc1" ?
Reply: > 100 µM

Query: What do we get for "NS(=O)(=O)c1nnc(NC(=O)CCC(=O)O)s1" ?
Reply: > 100 µM

Query: What do we get for "CCCNc1nc(N(C)O)nc(N(C)O)n1" ?
Reply: > 29.9 µM

Query: What do we get for "Nn1c(CNc2ccc(-c3nnc(Nc4ccc(Cl)cc4)n3N)cc2)nnc1Nc1ccc(Cl)cc1" ?
Reply: > 100 µM

Query: What do we get for "O=C(N/N=C(/COc1cccc(Cl)c1)N=Cc1ccncc1)c1ccncc1" ?
Reply: > 100 µM

Query: What do we get for COc1cc(/C=C2\C(=O)N(c3cccc(Cl)c3)C(c3ccccc3)S2(=O)=O)cc(OC)c1OC (stereo unspecified) ?
Reply: > 100 µM

Query: What do we get for "O=C(N=Nc1ccc([N+](=O)[O-])cc1)NNc1ccc([N+](=O)[O-])cc1" ?
Reply: > 100 µM

====

Provide the reported TGI of each item.
Test system: OVCAR-5 ovarian
Assay: NCI tumour cell line growth inhibition, 48 h

Query: What measured TGI goes with "Cc1ccc(SSCCCS(=O)O)cc1" ?
Reply: > 100 µM

Query: What do we get for "CC(=O)Nc1ccc2nncnc2c1" ?
Reply: > 100 µM

Query: What do we get for "OC(c1ccccc1)(c1ccccc1)c1ccccn1" ?
Reply: > 100 µM

Query: What do we get for "CCOC(=O)/C(C(=S)NC)=C(/N)N1CCCC1" ?
Reply: > 100 µM

Query: What do we get for "COc1cc(N=C(N)N=C(N)N)c2ncccc2c1" ?
Reply: > 100 µM

Query: What do we get for "CCCOc1ccc(/C(Cl)=C(\C=O)c2ccc(OC)c(OC)c2)cc1OCCC" ?
Reply: > 100 µM

Query: What do we get for "COc1cc2cc3c4c(cc(OC)c(OC)c4c2cc1OC)CCN3C(=O)CCCC(=O)O" ?
Reply: > 100 µM

Query: What do we get for C#CCNC(=O)CCC(N)C(=O)O (configuration not stated) ?
Reply: > 100 µM

Query: What do we get for COc1cc2c(cc1OCCCCNC(=O)c1cc3ccccc3[nH]1)N=CC1CCCN1C2=O (configuration not stated) ?
Reply: > 100 µM

Query: What do we get for "Cn1c(-c2ccccc2)cc(-c2ccc3c(c2)OCO3)c1-c1cccs1" ?
Reply: > 100 µM

Query: What do we get for CC(=O)OC1(C#N)CC2OC1C1C2N1C(=O)c1ccccc1 (configuration not stated) ?
Reply: > 100 µM

Query: What do we get for "c1ccc(Cc2cccc3cc(-c4ccc(-c5ccccc5)cc4)[nH]c23)cc1" ?
Reply: > 100 µM

Query: What do we get for "CSC1=N/C(=C\c2cccs2)C(=O)N1CN1CCOCC1" ?
Reply: > 100 µM

Query: What do we get for "C/C(CN1C(=O)c2ccccc2C1=O)=N\NS(=O)(=O)c1ccccc1" ?
Reply: > 100 µM

Query: What do we get for "COc1cccc(Nc2nc(NNC(=O)Cc3ccccc3)nc(NNC(=O)c3ccncc3)n2)c1" ?
Reply: > 100 µM

Query: What do we get for "COc1ccc(/C=C2\N=C(c3ccccc3)OC2=O)c(OCc2ccccc2)c1" ?
Reply: > 100 µM

Query: What do we get for "CCOC(=O)CC(=O)ON(C)C(=O)Cc1ccccc1" ?
Reply: > 100 µM

Query: What do we get for COc1cc2c(cc1OC)C(CCc1ccc(Cl)cc1)N(C)CC2 (configuration not stated) ?
Reply: 61.7 µM

Query: What do we get for "N#Cc1ccc(Oc2nccc(-c3c(-c4ccc(F)cc4)ncn3C3CCNCC3)n2)cc1" ?
Reply: > 25 µM

Query: What do we get for "CCOC(=O)c1ccc(N=C2SC(=S)N(c3ccc(F)cc3)C2=Nc2ccc(C(=O)OCC)cc2)cc1" ?
Reply: 38.7 µM

Query: What do we get for "CC(C)(C)OC(=O)N1C(C2=COc3ccccc3O2)=COc2ccccc21" ?
Reply: 99.1 µM

Query: What do we get for COC(=O)C12CCC(C(=O)OC)(Cc3c(c4ccccc4n3S(=O)(=O)c3ccccc3)C1)C2=O (configuration not stated) ?
Reply: > 94.6 µM
